Where these numbers come from: ChEMBL document CHEMBL1152800

Experiment: Aqueous solubility in HCl/H2O at pH 1
Assay type: physicochemical
Measurement label: solubility (µg/mL)

1. Nc1ccccc1Nc1ccc2c(c1)CCc1ncccc1C2=O
2. O=C1c2ccc(Nc3ccc(F)cc3F)cc2CCc2ncccc21
# input Of 1 and 2 , whose reported solubility is numerically smaller? Give the chosen item's label as your response.
# output 2
(2: 486 µg/mL, 1: 1200 µg/mL)

###

Biological target: Mitogen-activated protein kinase 14 (Homo sapiens)
Sequence (Q16539 whole entry): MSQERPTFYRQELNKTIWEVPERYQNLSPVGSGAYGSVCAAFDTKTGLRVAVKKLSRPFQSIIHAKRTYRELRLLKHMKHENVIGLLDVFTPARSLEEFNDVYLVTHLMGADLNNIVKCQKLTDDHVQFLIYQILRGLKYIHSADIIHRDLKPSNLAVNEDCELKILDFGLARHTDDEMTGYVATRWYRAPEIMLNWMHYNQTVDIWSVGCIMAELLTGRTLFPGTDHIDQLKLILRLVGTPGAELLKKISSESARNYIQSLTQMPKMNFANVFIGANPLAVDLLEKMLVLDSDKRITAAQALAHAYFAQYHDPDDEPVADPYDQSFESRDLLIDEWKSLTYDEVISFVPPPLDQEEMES
Assay: Inhibition of p38alpha MAPK by cell-free enzyme immunosorbent assay
pIC50: −log10 of the molar value.
Measurement label: pIC50

Look over these answered cases.
O=c1c2ccccc2ccc2cc(Nc3ccc(F)cc3F)ccc12    5.60
Nc1ccccc1Nc1ccc2c(c1)CCc1cccnc1C2=O    6.36
O=C1c2ccc(Nc3ccc(F)cc3F)cc2CCc2ncccc21    6.62
Nc1ccccc1Nc1ccc2c(=O)c3cccnc3ccc2c1    5.97

1. Nc1cc(F)ccc1Nc1ccc2c(c1)OCc1ccccc1C2=O
2. Nc1ccccc1Nc1ccc2c(c1)OCc1ncccc1C2=O
# input Given the listed items, does 1 or 2 have the lesser reported pIC50? Write down the label of the entry you select.
# output 2
(2: 5.57, 1: 7.40)

P. Nc1ccccc1Nc1ccc2c(=O)c3cnccc3ccc2c1
Q. O=C1c2ccccc2CCc2cc(Nc3ccc(F)cc3F)ccc21
# input // pick min by pIC50: P , Q Your answer should be the label of the entry you select.
# output P

1. Nc1cc(F)ccc1Nc1ccc2c(c1)CCc1ncccc1C2=O
2. Nc1cc(F)ccc1Nc1ccc2c(c1)CCc1ccccc1C2=O
# input Endpoint returns the identifier whose pIC50 is numerically larger, either 1 or 2 . Write down the label attached to your selection.
# output 2
(2: 6.89, 1: 5.92)

A. O=C1c2ccc(Nc3ccc(F)cc3F)cc2OCc2ncccc21
B. O=c1c2ccc(Nc3ccc(F)cc3F)cc2ccc2ncccc12
C. Nc1cc(F)ccc1Nc1ccc2c(c1)OCc1ncccc1C2=O
# input # desc sort on pIC50 across 3 molecules Reply with the item labels sorted in the order that was asked for.
# output A, B, C
